- Test system: SF-268 CNS
- procedure_summary: NCI tumour cell line growth inhibition, 48 h
reported_metric: TGI

[[record]]
compound = "Cc1ccc(NC(=O)CC/C(CC(=O)C(C)(C)C)=N/Nc2nnc(C)n2N)cc1C"
value_observed = "> 100 µM"

[[record]]
compound = "Nc1ccc2nc3ccc(=O)cc-3n(-c3ccccc3)c2c1"
value_observed = "> 100 µM"

[[record]]
compound = "Cc1[nH]c2ncn(Nc3ccccc3)c(=N)c2c1Cc1ccccc1"
value_observed = "> 100 µM"

[[record]]
compound = "CC1(C)[C@@H](Cn2nnc3c(N)ncnc32)CC[C@@]1(C)CO"
value_observed = "> 100 µM"

[[record]]
compound = "COc1ccc(C2CC(c3ccc4ccccc4c3O)=NN2)cc1OC (stereo not drawn)"
value_observed = "> 100 µM"

[[record]]
compound = "Cc1nc2c(=O)n(C)c(=O)n(C)c2o1"
value_observed = "> 100 µM"

[[record]]
compound = "C#CC[N+](CCO)(CCO)CCCCCCCCCCCCCCCCCC"
value_observed = "26.2 µM"

[[record]]
compound = "N#Cc1ccsc1Nc1ccccc1[N+](=O)[O-]"
value_observed = "> 100 µM"

[[record]]
compound = "COC(=O)[C@](NC(=O)OCc1ccccc1)([C@@H](C)Sc1ccc(C)cc1)C(F)(F)F"
value_observed = "> 100 µM"

[[record]]
compound = "O=CCOCc1cc2c(cc1Br)OCO2"
value_observed = "47.8 µM"

[[record]]
compound = "CCOC(=O)Cn1c(=O)n(C)c(=O)c2[nH]cnc21"
value_observed = "> 100 µM"

[[record]]
compound = "COc1ccc(NC(=O)C(=O)NO)c(OC)c1"
value_observed = "32.1 µM"

[[record]]
compound = "COC(=O)C12C3C4C1C1C2C3C41C(=O)O (stereo not drawn)"
value_observed = "> 100 µM"

